- TEST SYSTEM: T1, PavDof2 (Prunus avium (sweet cherry), UniProt A0A6P5T378 1-263)
- T1 sequence: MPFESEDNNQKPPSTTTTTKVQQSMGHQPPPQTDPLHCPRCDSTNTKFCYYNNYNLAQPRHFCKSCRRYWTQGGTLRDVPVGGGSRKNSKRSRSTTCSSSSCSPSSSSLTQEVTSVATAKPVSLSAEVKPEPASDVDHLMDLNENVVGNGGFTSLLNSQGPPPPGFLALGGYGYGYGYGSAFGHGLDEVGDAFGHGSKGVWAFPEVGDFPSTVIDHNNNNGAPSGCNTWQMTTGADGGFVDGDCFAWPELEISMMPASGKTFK
- ASSAY SUMMARY: EMSA; Light Shift Chemiluminescent EMSA Kit (Beyotime); buffer, salt, pH and temperature not stated
- PARTICULARS: protein: recombinant; tags: His (pET-30a(+)); label: biotin
EXPERIMENTAL ENDPOINT: binding result

BINDER	EXPERIMENTAL ENDPOINT	RESULT
PavPME44 promoter probe (dsDNA) DNA 1: CTGCTTTTCTGAAAATTAAAGCAGTTTGGAGAAAAGTCC DNA 2: GGACTTTTCTCCAAACTGCTTTAATTTTCAGAAAAGCAG	binding result	binds
PavXTH31 promoter probe (dsDNA) DNA 1: TGCTTTTTTTTTTTTAAAGGATT DNA 2: AATCCTTTAAAAAAAAAAAAGCA	binding result	binds
PavPL18 promoter probe (dsDNA) DNA 1: CATAAAAAGAAATAAAATGAAAAGAAAAGTGA DNA 2: TCACTTTTCTTTTCATTTTATTTCTTTTTATG	binding result	binds

Where do the numbers come from? From paper PMC9706453.
